# ASSAYED SYSTEM: Alpha-2C adrenergic receptor (Homo sapiens)
# TEST DESCRIPTION: modulators of alpha2C/GIRK thallium flux, primary screen, cell-based, HEK293 alpha2C/GIRK1/2 (AID 624);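 also: slope of fluorescence ratio to pre-addition baseline per second over 15 to 24 s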
# ASSAY CONTEXT: thallium flux BTC fluorescence, at 10 µM, actives lie on both sides
Threshold 0.005. slope below it: satisfied. slope at it or above: not satisfied.

COMPOUND | ASSAYED SYSTEM | ASSIGNED CATEGORY
CCN1CCCC1Cn1cnc2c([nH]c3ccc(C)cc32)c1=O (stereo not given) | Alpha-2C adrenergic receptor (Homo sapiens) | not satisfied
CCOC(=O)C1CCN(C(C)=C2C(=O)c3ccccc3C2=O)CC1 | Alpha-2C adrenergic receptor (Homo sapiens) | not satisfied

Incoming: # strict comparison: is reported slope < 0.005? input = "CC(C)OC(=O)c1sc2nc3c(cc2c1N)C(=O)CCC3"
Outgoing: not satisfied

Incoming: # strict comparison: is reported slope < 0.005? input = "CCOC(=O)N1CCN(c2ncnc3c2[nH]c2ccc(OC)cc23)CC1"
Outgoing: satisfied

Incoming: # strict comparison: is reported slope < 0.005? input = "O/N=C(\c1ccc2c(c1)OCCO2)C1CCCCC1"
Outgoing: not satisfied

Incoming: # strict comparison: is reported slope < 0.005? input = O=C1C(=O)N(CCN2CCOCC2)C(c2ccccn2)/C1=C(/O)c1ccc(F)cc1 (stereo not given)
Outgoing: not satisfied

Incoming: # strict comparison: is reported slope < 0.005? input = "CSC1=Nc2sc3c(c2C2=NCCN12)CC(C)(C)OC3"
Outgoing: satisfied

Incoming: # strict comparison: is reported slope < 0.005? input = COc1ccccc1N1CCN(CC(O)COc2cccc3ccccc23)CC1 (stereo not given)
Outgoing: satisfied

Incoming: # strict comparison: is reported slope < 0.005? input = "CCCCNc1nc2c(c(=O)n(C)c(=O)n2C)n1Cc1cccc(OC)c1"
Outgoing: satisfied

Incoming: # strict comparison: is reported slope < 0.005? input = "CCCCn1c2nc3ccccc3nc2c2c(=O)n(CC(C)C)cnc21"
Outgoing: not satisfied

Incoming: # strict comparison: is reported slope < 0.005? input = "CCn1cc(C(=O)NCCc2ccccc2)c(=O)c2cc(F)c(N3CCN(C)CC3)cc21"
Outgoing: not satisfied

Incoming: # strict comparison: is reported slope < 0.005? input = CCOC(=O)C(C#N)C(Cc1ccccc1)c1ccco1 (stereo not given)
Outgoing: not satisfied

* * *

What inhibition was measured for each of the following?
# TEST DESCRIPTION: inhibitors of Chlamydomonas gravitaxis, primary screen, whole organism, Chlamydomonas reinhardtii, WT vs cilia-less mutant, absorbance, 96-well (AID 463189);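 also: 0% = wild type cc124 cells in DMSO and 100% = ciliumless bld1 mutant cells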
# ASSAY CONTEXT: OD600 absorbance, 2 days, at 10 µM, stronger effect = higher value
Numbers only, in %.

Some molecules with recorded inhibition:
MOLECULE | VALUE UNITS | inhibition
COC(=O)CC1=NC(=O)CS1 | % | -1.11
CCOC(=O)c1[nH]c2ccc(Br)cc2c1NC(=O)CCN1CCN(C(=O)OCC)CC1 | % | 18.6
O=C1c2ccccc2S(=O)(=O)N1CC(O)COc1ccc(Cl)cc1 (stereo unspecified) | % | 1.18
CCCN(CCC)C(=O)CC(c1ccc(F)cc1)c1ccco1 (stereo unspecified) | % | 27.9
CCCCN(CCCC)c1nc2ccccc2nc1C(C#N)C(=O)NCCCOC (stereo unspecified) | % | 5.14

Your task in this section: give inhibition for each listed record.
1. CCCc1[nH]nc2c1C(c1c(C)nn(-c3ccccc3)c1Cl)C(C#N)=C(N)O2 (stereo unspecified)
2. O=C(CSc1nnc(-c2ccccc2)c(-c2ccccc2)n1)N1CCOCC1
3. COc1ccc(CCNc2nc3c(c(=O)n(C)c(=O)n3C)n2C)cc1OC
4. c1ccc(CN2CCN(c3ncnc4c3[nH]c3ccccc34)CC2)cc1

Outgoing:
1. -5.65
2. 9.56
3. -4.62
4. 21.2

Your task in this section: give inhibition for each listed record.
1. COc1ccccc1N1CCN(C2CCN(C(=O)c3cccs3)CC2)CC1
2. O=C(NCCN1CCCCC1)c1ccc(=O)oc1

Outgoing:
[22.3, -5.06]

* * *

# TEST DESCRIPTION: inhibitors of poly I:C-induced TLR3 signaling, primary screen, cell-based, poly I:C stimulus, luciferase, 10K MLSCN set (AID 602277)
# ASSAY CONTEXT: HEK293-TLR3 RL24 IRF3 luciferase reporter, at 10 µM, stronger effect = higher value
Cut-off 20% on inhibition, inclusive. At or above means met; below means not met.

COMPOUND | ASSIGNED CATEGORY
Cc1cc(C)n(-c2nnc(C)n2/N=C/c2ccccc2F)n1 | met
CCOc1ccc(C2/C(=C(/O)c3ccc(OC)cc3)C(=O)C(=O)N2c2cc(C)on2)cc1OC (configuration not stated) | not met
COc1ccc(C(=O)Cn2c(N3CCCCC3)nc3c2c(=O)n(C)c(=O)n3C)cc1OC | not met
CCOC(=O)N1CCC(=C2c3ccc(Cl)cc3CCc3cccnc32)CC1 | not met
Cn1c(/C(C#N)=C/Nc2ccccn2)nc2ccccc21 | not met
Nc1nc(NC(=O)c2cccs2)nn1-c1ccccc1 | not met
CCCCCC(=O)N1CC2(C)CN(C(=O)CCCCC)CC(C)(C1)C2=O | met
CC(C)Sc1nc(N2CCCC2)c2c(c1C#N)CC(C)(C)OC2 | not met
Fc1ccc(C2C3=C(Nc4ncnn42)c2ccccc2OC3c2ccncc2)cc1 (configuration not stated) | not met
CCOC(=O)c1c(C)n(C)c2ccc(OC)c(NC(=O)CCN3CCSCC3)c12 | met

Incoming: I'd appreciate it if you could say whether "Brc1c(NC2=NCCN2)ccc2nccnc12" has inhibition at least equal to 20%.
Outgoing: met

Incoming: I'd appreciate it if you could say whether O=S(=O)(c1ccc2ccccc2c1)N(CC(O)CN1CCOCC1)c1ccccc1 (configuration not stated) has inhibition at least equal to 20%.
Outgoing: not met

Incoming: I'd appreciate it if you could say whether "Cc1ccc(Cl)c(Nc2ccccc2C(=O)O)c1Cl" has inhibition at least equal to 20%.
Outgoing: met

* * *

# TEST DESCRIPTION: inhibitors of TNFa-induced NFkB p65 translocation, primary screen, imaging, HUVEC, MLSMR starter and 10KST1 sets (AID 438);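 also: compound added about 3h40 before a 20 min TNFalpha stimulation; signal is the nuclear over cytoplasmic p65 intensity ratio per well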
# ASSAY CONTEXT: HUVEC TNFa-induced p65 nuclear translocation; at 2 µM, stronger effect = higher value, 0% TNFa-plus-vehicle, 100% no-TNFa wells
What inhibition was measured for each of the following?
Numbers only, in %.

MOLECULE | VALUE UNITS | inhibition
CCC(NC(C)C)C(O)c1ccc(O)c(O)c1 (stereo not drawn) | % | -7.3
Fc1cnc(N2CCOCC2)nc1NCc1ccccc1 | % | -2.3

Here is the next item to consider.
Incoming: Dear colleague, please send me the reported inhibition for "Oc1ccccc1-c1nc(NCCN2CCOCC2)c2ccccc2n1" when you can.
Outgoing: -6.5

* * *

# ASSAYED SYSTEM: Voltage-gated potassium channel subunit beta-2 (Rattus norvegicus) (UniProt P62483)
# Sequence (P62483 whole entry, looked up): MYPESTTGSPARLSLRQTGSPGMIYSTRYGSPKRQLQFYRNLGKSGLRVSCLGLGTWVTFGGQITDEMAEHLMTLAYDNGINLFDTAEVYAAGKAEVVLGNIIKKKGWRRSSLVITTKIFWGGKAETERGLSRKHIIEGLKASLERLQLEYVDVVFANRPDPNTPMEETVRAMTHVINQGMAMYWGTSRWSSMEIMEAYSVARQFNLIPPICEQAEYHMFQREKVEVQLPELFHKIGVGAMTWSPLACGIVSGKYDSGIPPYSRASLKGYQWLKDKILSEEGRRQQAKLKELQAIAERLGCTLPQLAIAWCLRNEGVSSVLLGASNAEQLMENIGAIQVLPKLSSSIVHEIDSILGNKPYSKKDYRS
# TEST DESCRIPTION: KvBeta enzyme negative modulators, primary screen, biochemical, NADPH fluorescence (AID 622);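 also: slope of raw intensity against log time taken from 70 to 1610 s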
# ASSAY CONTEXT: recombinant KvBeta, 4-cyanobenzaldehyde reduction, at 10 µM, stronger effect = higher value
What fluorescence slope was measured for each of the following?
Give bare numbers.

Some compounds with recorded fluorescence slope:
COMPOUND | OBSERVED
CCC(=O)O[C@@H]1CC(=O)O[C@H](C)CC=CC=C[C@@H](O)[C@H](C)C[C@H](CC=O)[C@H](O[C@H]2O[C@H](C)[C@@H](O[C@H]3C[C@@](C)(O)[C@@H](OC(=O)CC)[C@H](C)O3)[C@H](N(C)C)[C@H]2O)[C@H]1OC | -0.525
CCOc1ccc(Br)cc1CC(=O)O | -0.486
Oc1ccc(C=Nc2ccc3ncccc3c2)c(O)c1 | -0.477

Your task in this section: give fluorescence slope for each listed record.
1. CCOC(=O)c1c(C)n(C)c2ccc(O)c(S(=O)(=O)c3ccccc3)c12
2. O=C1OC(Nc2ccc(Br)cc2F)c2ccccc21 (stereo not given)
3. CC1(C2(O)CC(c3ccccc3)ON2)CCCCC1 (stereo not given)
4. CCN1CCc2c(C#N)c(NCc3ccccc3)nc(NCCO)c2C1
5. COC(=O)C1=C(N)Oc2cc(C)[nH]c(=O)c2C1c1ccncc1 (stereo not given)
6. O=C1CC(NCc2ccc3c(c2)OCO3)C(=O)N1Cc1ccc2c(c1)OCO2 (stereo not given)

Outgoing:
1: -0.458; 2: -0.383; 3: -0.516; 4: -0.398; 5: -0.45; 6: -0.505

Your task in this section: give fluorescence slope for each listed record.
1. C[C@H](CCC(=O)O)[C@H]1CC[C@H]2[C@@H]3C(=O)C[C@@H]4CC(=O)CC[C@]4(C)[C@H]3CC(=O)[C@]12C
2. COC(=O)c1ccn(C(=O)c2ccc(Cl)cc2)n1

Outgoing:
-0.45
-0.519

Your task in this section: give fluorescence slope for each listed record.
1. CCOC(=O)CSc1nc(N)c2c3c(sc2n1)CCCC3
2. O=C1[C@@H]2[C@H](C(=O)N1n1cnnc1)[C@H]1C=C[C@@H]2C1
3. Cc1cc(/C(O)=C2\C(=O)C(=O)N(CCN(C)C)C2c2ccncc2)ccc1OCc1ccccc1 (stereo not given)
4. CC1(C)CC(=O)C2=C(C1)N(Cc1ccco1)C(=O)C2(O)C(F)(F)F (stereo not given)

Outgoing:
1: -0.363; 2: -0.529; 3: -0.481; 4: -0.467

The reported numbers originate from PubChem BioAssay.
